# System: K562
# assay.protocol: NCI tumour cell line growth inhibition, 48 h
The source made the active and inactive calls. No stated cut-off is given here; in the data, active = GI50 up to about 1.1 µM and inactive = higher.
Kindly supply the reported GI50 values for the records listed here.

In the examples that follow, each entry is paired with its recorded GI50.
- molecule: "C=C1C(=O)OC2C=C(C)CC3C=C(CCC=C(C)CCC12)C(=O)O3 (stereo unspecified)"
  GI50: "55.8 µM (inactive)"
- molecule: "COc1cccc(/C=N\\NC(=O)C(C)SC(C)C(=O)N/N=C/c2cccc(OC)c2)c1 (stereo unspecified)"
  GI50: "> 78.3 µM (inactive)"
- molecule: "Nc1ccc2ncc(Nc3ccc(F)cc3)nc2c1"
  GI50: "52.5 µM (inactive)"

List reported GI50 for each of these molecules:
1. COc1cc(C2SC(=N)Nc3c2c(C)nn3C(=O)Cc2ccccc2)ccc1O (stereo unspecified)
2. O=C(O)CN1CCN(CC(=O)O)CCN(CC(=O)O)CC1
3. CCC1OC2C(CC=C(C)C)=C3OC(C)(O)C(C)(CC)C(OC(=O)c4ccccc4)C3=C3OC(=O)C=C1C32 (stereo unspecified)
4. COc1ccc(N2C(=O)c3cccnc3S2(=O)=O)cc1
5. C[N+](C)(C)Cc1c(CC#N)[nH]c2ccccc12
6. C=CCC1(CN(C)C)CC/C(=C\c2ccc(OC)cc2)C1=O (stereo unspecified)
7. CC1=NN(C(=O)CSc2nnc(SCC(=O)N3N=C(C)CC3(O)c3ccccc3)s2)C(O)(c2ccccc2)C1 (stereo unspecified)
8. CCOP1(=O)OCC2OC(n3cnc4c(N)ncnc43)C(O)C2O1.c1ccccc1 (stereo unspecified)

Result:
1: > 100 µM (inactive); 2: 2.31 µM (inactive); 3: 39 µM (inactive); 4: > 100 µM (inactive); 5: 25.8 µM (inactive); 6: 32.9 µM (inactive); 7: 32.6 µM (inactive); 8: > 100 µM (inactive)

Your task in this section: give GI50 for each listed record.
1. CN1CC2=C(N=C(S)NC2c2ccc(Cl)cc2)/C(=C/c2ccc(Cl)cc2)C1 (stereo unspecified)
2. CCNCCNC(=O)c1ccc(I)cc1
3. Cc1ccc(C)c2c1CCc1cc3ccccc3nc1-2
4. O=C(NC(O)(C(F)(F)F)C(F)(F)F)c1ccccc1
5. CN(Cc1cc(Cl)cc(Cl)c1)CC(C(=O)c1ccccc1)c1ccccc1 (stereo unspecified)
6. C/C(CC(=O)N(C(C)C)C(C)C)=N\NC(=O)c1ccncc1
7. O=C(N/N=C1\CCc2ccccc21)N/N=C1\CCc2ccccc21
8. O=C1Oc2ccccc2C(=O)/C1=C/N1C(=O)N/C(=C\c2ccccc2O)C1=O

Result:
1. 12.6 µM (inactive)
2. > 100 µM (inactive)
3. > 100 µM (inactive)
4. > 100 µM (inactive)
5. 0.962 µM (active)
6. > 100 µM (inactive)
7. > 100 µM (inactive)
8. 54.7 µM (inactive)
